Measured chromatographic logD, listed per entry for reference.
- assay: Lipophilicity, logD of compound by chromatographic analysis
- Assay type: physicochemical
Could you respond with only the numeric value?

Consider the worked cases shown below.
{"molecularString": "C[C@@H](NC(=O)c1nn(-c2ccccc2Cl)c(-c2ccc(Cl)cc2)c1CC(N)=O)c1ccc(C(F)(F)F)nc1", "chromatographic logD": 3.3}
{"molecularString": "O=C(O)Cc1c(C(=O)N2CCC(Oc3cccc(Cl)c3)CC2)nn(-c2ccccc2Cl)c1-c1ccc(Cl)cc1", "chromatographic logD": 2.8}
{"molecularString": "O=C(c1nn(-c2ccccc2Cl)c(-c2ccc(Cl)cc2)c1Cc1nn[nH]n1)N1CCC(Oc2ccc(F)c(F)c2)CC1", "chromatographic logD": 2.5}
{"molecularString": "N=C(Cc1c(C(=O)NN2CCCCC2)nn(-c2ccccc2Cl)c1-c1ccc(Cl)cc1)NO", "chromatographic logD": 2.9}
{"molecularString": "N#Cc1ccc(CNC(=O)c2nn(-c3ccccc3Cl)c(-c3ccc(Cl)cc3)c2CC(N)=O)cc1", "chromatographic logD": 2.9}

Q: Read the entry N#Cc1cccc(C2(O)CCN(C(=O)c3nn(-c4ccccc4Cl)c(-c4ccc(Cl)cc4)c3CC(N)=O)CC2)c1 and write its reported chromatographic logD.
Result: 2.6

Q: Read the entry O=C(c1nn(-c2ccccc2Cl)c(-c2ccc(Cl)cc2)c1Cc1nn[nH]n1)N1CCC(Oc2cccc(F)c2F)CC1 and write its reported chromatographic logD.
Result: 2.5

Q: Read the entry N#Cc1ccc(C2(O)CCN(C(=O)c3nn(-c4ccccc4Cl)c(-c4ccc(Cl)cc4)c3CC(N)=O)CC2)cc1 and write its reported chromatographic logD.
Result: 2.5
